The values you see were collected from patent US3983125A.

Test: Mechanical stimulation method according to Haffner
Assay type: in vivo
Conditions: mouse, 100 mg/kg orally, after 2 hrs
Please respond with T when measured Average percent antalgic activity after 2 hrs is strictly beneath 60%, and with F in all other cases.

Answered examples (2):
compound	label
OC1CNCc2ccsc21 (stereo not drawn) [Derivative 1]	F
CC1NCC(O)c2ccsc21 (stereo not drawn) [Derivative 3]	T

# next compound below
Query: Is the reported Average percent antalgic activity after 2 hrs for CCC1NCC(O)c2sccc21 (stereo not drawn) [Derivative 6] strictly below 60%?
Reply: F

###

# LD50 at 24 h values compiled below
Assay: Acute toxicity, LD50 intravenous route, Miller and Tainter method
Details: mouse, in vivo, mice, per kg body weight
Only the number, expressed in mg/kg, is required.

compound	readoutLabel	unitOfMeasure	valueReported
CCC1NCC(O)c2sccc21 (stereo not drawn) [Derivative 6]	LD50 at 24 h	mg/kg	210
CC1NCC(O)c2sccc21 (stereo not drawn) [Derivative 5]	LD50 at 24 h	mg/kg	155
OC1CNCc2sccc21 (stereo not drawn) [Derivative 2]	LD50 at 24 h	mg/kg	68
CCC1NCC(O)c2ccsc21 (stereo not drawn) [Derivative 4]	LD50 at 24 h	mg/kg	285
CC1NCC(O)c2ccsc21 (stereo not drawn) [Derivative 3]	LD50 at 24 h	mg/kg	300

Query: # input compound: OC1CNCc2ccsc21 (stereo not drawn) [Derivative 1] ; wanted: its LD50 at 24 h
Reply: 75
